All figures here come from patent US7612208B2.

Assay: Evaluation of hygroscopicity (storage 1 week; water content, powder X-ray diffraction)
Format: physicochemical
Details: hygroscopicity test, initial
ASSAY READOUT: water content (%)
Entry rule: numbers only, all in %.

input: Suppose we examine the compound `CC(=O)O.COc1cc2nccc(Oc3ccc(NC(=O)NC4CC4)c(Cl)c3)c2cc1C(N)=O.CS(=O)(=O)O` ; what water content value has been reported?
output: 2.9

input: Suppose we examine the compound COc1cc2nccc(Oc3ccc(NC(=O)NC4CC4)c(Cl)c3)c2cc1C(N)=O.CS(=O)(=O)O [mesylate (Form A)] ; what water content value has been reported?
output: 0.7

input: Suppose we examine the compound CCS(=O)(=O)O.COc1cc2nccc(Oc3ccc(NC(=O)NC4CC4)c(Cl)c3)c2cc1C(N)=O [esylate (Form β)] ; what water content value has been reported?
output: 1.7

input: Suppose we examine the compound COc1cc2nccc(Oc3ccc(NC(=O)NC4CC4)c(Cl)c3)c2cc1C(N)=O.CS(=O)(=O)O [mesylate (Form C)] ; what water content value has been reported?
output: 0.7
